Attribute: kon
Target: T1, recombinant human TRAIL R1 (DR4)/Fc chimera (human, UniProt O00220 24-239)
T1 construct: bought (R&D Systems); not shown: Fc of the bought chimera (R&D Systems)
T1 sequence: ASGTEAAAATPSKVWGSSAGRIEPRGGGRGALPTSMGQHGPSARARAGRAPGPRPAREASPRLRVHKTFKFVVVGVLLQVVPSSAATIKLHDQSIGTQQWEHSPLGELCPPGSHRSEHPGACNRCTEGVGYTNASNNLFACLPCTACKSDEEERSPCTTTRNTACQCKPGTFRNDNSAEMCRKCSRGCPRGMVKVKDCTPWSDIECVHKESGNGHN
Test: SPR (Biacore), ATRIMER

binder	measured result
119p94P1B4 (designed binder, ATRIMER from pANA19) EPPTQKPKKIVNAKKDVVNTKMFEELKSRLDTLAQEVALLKEQQALQTVCLKGTKVHMKCFLAFTQTKTFHEASEDCISRGGTLSTPQTGSENDALYEYLRQSVGNEAEIWLGLNGWLEGVGWVDMTGARIAYKNWAEVPFFQPDGGWPFSNENCAVLSGAANGKWFDKRCRDQLPYICQFGIV	185000 M⁻¹ s⁻¹

Now for the binder whose kon we want.
Lab note: 119p94P1D8 (designed binder, ATRIMER from pANA19) EPPTQKPKKIVNAKKDVVNTKMFEELKSRLDTLAQEVALLKEQQALQTVCLKGTKVHMKCFLAFTQTKTFHEASEDCISRGGTLSTPQTGSENDALYEYLRQSVGNEAEIWLGLNGWLEGVGWVDMTGARIAYKNWGWMDSKQPDGGWPFSNENCAVLSGAANGKWFDKRCRDQLPYICQFGIV gave kon of 400000 M⁻¹ s⁻¹
